Values compiled from patent US12024531B2.

Biological target: HT29 β5c (Homo sapiens, UniProt P28074)
Assay: Durability of binding in cells (wash-out, Proteasome-Glo), HT29 β5c
Type: cell-based
Conditions: 30 min after inhibitor washout
propertyName: IC50 (nM)
One number for each entry, in nM.

For HT29 β5c (Homo sapiens, UniProt P28074), provide IC50 of CC(C)(C)NC(=O)C(C#N)=Cc1cccc(OCCC(=O)N[C@@H](Cc2ccccc2)B(O)O)c1 please.
109

* * *

Would you mind telling me the reported pIC50 of each entry?
Molecular target: PBMC LMP2 (Homo sapiens, UniProt P28065)
Assay: Inhibition of proteasome activity in cells (Proteasome-Glo), PBMC/LMP2
Type: cell-based
Conditions: 2 h incubation at 37° C.
pIC50: −log10 of the molar value.

Worked cases, answers included:
CNC(=O)C(C#N)=Cc1cccc(OCCC(=O)N[C@@H](Cc2ccccc2)B(O)O)c1 = < 5.30
CC(C)(C)NC(=O)C(C#N)=Cc1cccc(OCCC(=O)N[C@@H](Cc2coc3ccccc23)B(O)O)c1 = 6.29
CN(C)C(=O)C(C#N)=Cc1cccc(CCOC(=O)N[C@@H](Cc2ccccc2)B(O)O)c1 = < 5.30
CC(C)(C)NC(=O)C(C#N)=Cc1cccc(OCCC(=O)N[C@@H](CCc2ccccc2)B(O)O)c1 = < 5.30
N#CC(=Cc1cccc(OCCC(=O)N[C@@H](Cc2ccccc2)B(O)O)c1)c1ccccn1 = < 5.30

For every item in the list below, what is its measured pIC50?
1. CC(C)(C)NC(=O)C(C#N)=Cc1cccc(OCCC(=O)N[C@@H](Cc2ccccc2)B(O)O)c1
2. CN1CCN(C(=O)C(C#N)=Cc2cccc(OCCC(=O)N[C@@H](Cc3ccccc3)B(O)O)c2)CC1
3. CN(C)C(=O)C(C#N)=Cc1cccc(COC(=O)N[C@@H](Cc2ccccc2)B(O)O)c1

1: 5.42; 2: < 5.30; 3: < 5.30

* * *

Target: immunoproteasome LMP7/B5i subunit (Homo sapiens, UniProt P28062)
Assay: Caliper-based proteasome enzymatic activity assay, LMP7
Conditions: human recombinant immunoproteasome 0.3 nM, FAM peptide substrate 1 μM, rt 3 h
pIC50: −log10 of the molar value.
Tick t if pIC50 is 8 or greater. Tick f if pIC50 is less than 8.

Cc1ccc(C[C@H](NC(=O)OCCc2cccc(C=C(C#N)c3ncccn3)c2)B(O)O)cc1 = t

Quick check, pIC50 >= 8? Cc1ccc(C[C@H](NC(=O)NCCc2cccc(C=C(C#N)c3ccc(C(F)(F)F)cn3)c2)B(O)O)cc1
f

Same thing, different compound: N#CC(=Cc1cccc(OCCC(=O)N[C@@H](CCc2ccccc2)B(O)O)c1)c1ccccn1
f

Same thing, different compound: Cc1ccc(C[C@H](NC(=O)NCCc2cccc(C=C(C#N)n3cncn3)c2)B(O)O)cc1
f

Same thing, different compound: Cc1ccc(C[C@H](NC(=O)OCCc2cccc(C=C(C#N)C(=O)N3[C@@H](C)COC[C@@H]3C)c2)B(O)O)cc1
t

Same thing, different compound: CC(C)N(C(=O)C(C#N)=Cc1cccc(CCOC(=O)N[C@@H](Cc2ccccc2)B(O)O)c1)C(C)C (single isomer, unassigned) [Example 74]
f

Same thing, different compound: N#CC(=Cc1cccc(CCOC(=O)N[C@@H](CCc2ccccc2)B(O)O)c1)n1cncn1
t

Same thing, different compound: C[C@@H]1COC[C@@H](C)N1C(=O)C(C#N)=Cc1cccc(CCOC(=O)N[C@@H](Cc2coc3ccccc23)B(O)O)c1
t

Same thing, different compound: CCN(CC)C(=O)C(C#N)=Cc1cccc(CCNC(=O)N[C@@H](Cc2ccc(C)cc2)B(O)O)c1
f

Same thing, different compound: CCN(C(=O)C(C#N)=Cc1cc(C#N)cc(CCOC(=O)N[C@@H](Cc2ccccc2)B(O)O)c1)C1CCOCC1
t

Same thing, different compound: CC(C)(C)NC(=O)C(C#N)=Cc1cccc(OCCC(=O)N[C@@H](Cc2ccccc2)B(O)O)c1
t

Same thing, different compound: N#CC(=Cc1cccc(CCOC(=O)N[C@@H](Cc2ccccc2)B(O)O)c1)c1ncccn1
t

Same thing, different compound: CN(C)C(=O)C(C#N)=Cc1cc(F)cc(OCCC(=O)N[C@@H](Cc2ccccc2)B(O)O)c1
t

Same thing, different compound: COCC(C)(C)NC(=O)C(C#N)=Cc1cccc(OCCC(=O)N[C@@H](Cc2ccccc2)B(O)O)c1
t

Same thing, different compound: Cc1ccc(C[C@H](NC(=O)CCOc2cccc(C=C(C#N)c3ccccn3)c2)B(O)O)c(C)c1
t

* * *

Target: immunoproteasome LMP2 subunit (Homo sapiens, UniProt P28065)
Experiment: Caliper-based proteasome enzymatic activity assay, LMP2
Conditions: human recombinant immunoproteasome 0.3 nM, FAM peptide substrate 1 μM, rt 2 h
propertyName: IC50 (µM)
Numbers only, in µM.

Worked cases, answers included:
CCN(C(=O)C(C#N)=Cc1cccc(CCOC(=O)N[C@@H](Cc2ccccc2)B(O)O)c1)C(C)(C)C = 3.19
CC(C)(C)NC(=O)C(C#N)=Cc1cccc(CC[C@H](NC(=O)c2cc(Cl)ccc2Cl)C(=O)N[C@@H](Cc2ccccc2)B(O)O)c1 = 0.016
CN(C)C(=O)C(C#N)=Cc1cc(F)cc(OCCC(=O)N[C@@H](Cc2ccccc2)B(O)O)c1 = 0.32

For immunoproteasome LMP2 subunit (Homo sapiens, UniProt P28065), provide IC50 of CCN(C(=O)C(C#N)=Cc1cccc(CCOC(=O)N[C@@H](Cc2ccccc2)B(O)O)c1)C(C)C please.
4.54

* * *

Target: immunoproteasome LMP7/B5i subunit (Homo sapiens, UniProt P28062)
Test: Caliper-based proteasome enzymatic activity assay, LMP7
Details: human recombinant immunoproteasome 0.3 nM, FAM peptide substrate 1 μM, rt 3 h
Would you mind telling me the reported pIC50 of each entry?
Give bare numbers, as −log10 of the molar value.

Worked cases, answers included:
N#CC(=Cc1cccc(OCCC(=O)N[C@@H](Cc2ccccc2)B(O)O)c1)C(=O)N1CCN(C2COC2)CC1 = 8.40
N#CC(=Cc1cccc(CCOC(=O)N[C@@H](Cc2ccccc2)B(O)O)c1)c1cnccn1 = 8.85
CC1(C)COCCN1C(=O)C(C#N)=Cc1cccc(CCOC(=O)N[C@@H](Cc2coc3ccccc23)B(O)O)c1 = 8.96

For every item in the list below, what is its measured pIC50?
1. CCc1cccc(C[C@H](NC(=O)CCOc2cccc(C=C(C#N)C(=O)NC(C)(C)C)c2)B(O)O)c1
2. Cc1ccc(C[C@H](NC(=O)OCCc2cccc(C=C(C#N)c3ccc(C(F)(F)F)cn3)c2)B(O)O)cc1
3. CCN(C(=O)C(C#N)=Cc1cccc(CCOC(=O)N[C@@H](Cc2ccc(C)cc2)B(O)O)c1)C1CCOCC1
4. CC1(C)COCCN1C(=O)C(C#N)=Cc1cccc(CCOC(=O)N[C@@H](Cc2ccccc2)B(O)O)c1

1. 7.80
2. 8.28
3. 8.92
4. 9.05

* * *

Would you mind telling me the reported pIC50 of each entry?
Biological target: constitutive proteasome β5c subunit (Homo sapiens, UniProt P28074)
Assay: Caliper-based proteasome enzymatic activity assay, β5c
Settings: human recombinant constitutive proteasome 0.3 nM, FAM peptide substrate 1 μM, rt 3 h
One number for each entry, as −log10 of the molar value.

Worked cases, answers included:
CC(C)(C)C[C@H](NC(=O)CCOc1cccc(C=C(C#N)C(=O)NC(C)(C)C)c1)B(O)O [Example 13] = 5.41
CCc1cccc(C[C@H](NC(=O)CCOc2cccc(C=C(C#N)C(=O)NC(C)(C)C)c2)B(O)O)c1 [Example 8] = 6.38
CCN(C(=O)C(C#N)=Cc1cc(C#N)cc(CCOC(=O)N[C@@H](Cc2ccccc2)B(O)O)c1)C1CCOCC1 [Example 102] = 5.81
Cc1ccc(C[C@H](NC(=O)OCCc2cccc(C=C(C#N)c3ncccn3)c2)B(O)O)cc1 [Example 87] = 6.71
CC(C)(C)NC(=O)C(C#N)=Cc1cccc(OCCC(=O)N[C@@H](Cc2ccccc2)B(O)O)c1 [Example 2] = 7.18

For every item in the list below, what is its measured pIC50?
1. CCN(C(=O)C(C#N)=Cc1cccc(CCOC(=O)N[C@@H](Cc2coc3ccccc23)B(O)O)c1)C1CCOCC1 [Example 95]
2. N#CC(=Cc1cccc(OCCC(=O)N[C@@H](Cc2coc3ccccc23)B(O)O)c1)c1ccccn1 [Example 23]
3. CC(C)(C)NC(=O)C(C#N)=Cc1cccc(CCC(=O)N[C@@H](Cc2ccccc2)B(O)O)c1 [Example 3]
4. CN(C)C(=O)C(C#N)=Cc1ccc(Cl)c(OCCC(=O)N[C@@H](Cc2ccccc2)B(O)O)c1Cl [Example 38]
5. CCN(C(=O)C(C#N)=Cc1cc(C#N)cc(CCOC(=O)N[C@@H](Cc2ccc(C)cc2)B(O)O)c1)C1CCOCC1 [Example 103]
6. N#CC(=Cc1cccc(OCCC(=O)N[C@@H](Cc2ccccc2)B(O)O)c1)c1ccccn1 [Example 6]
7. COc1ccc(C=C(C#N)c2ccccn2)cc1OCCC(=O)N[C@@H](Cc1ccccc1)B(O)O [Example 29]

[7.06, 8.10, 6.92, 6.79, 6.34, 7.05, 7.44]

For constitutive proteasome β5c subunit (Homo sapiens, UniProt P28074), provide pIC50 of CC(C)(C)NC(=O)C(C#N)=Cc1cccc(CC[C@H](NC(=O)c2cc(Cl)ccc2Cl)C(=O)N[C@@H](Cc2ccccc2)B(O)O)c1 [Example 4] please.
8.15
